Measured values drawn from patent US8022091B2 for this set.

Here, each record is paired with measured pIC50 data.
- TARGET UNDER TEST: human Edg-1 (S1P1) (Homo sapiens, UniProt P21453)
- Sequence (P21453 whole entry): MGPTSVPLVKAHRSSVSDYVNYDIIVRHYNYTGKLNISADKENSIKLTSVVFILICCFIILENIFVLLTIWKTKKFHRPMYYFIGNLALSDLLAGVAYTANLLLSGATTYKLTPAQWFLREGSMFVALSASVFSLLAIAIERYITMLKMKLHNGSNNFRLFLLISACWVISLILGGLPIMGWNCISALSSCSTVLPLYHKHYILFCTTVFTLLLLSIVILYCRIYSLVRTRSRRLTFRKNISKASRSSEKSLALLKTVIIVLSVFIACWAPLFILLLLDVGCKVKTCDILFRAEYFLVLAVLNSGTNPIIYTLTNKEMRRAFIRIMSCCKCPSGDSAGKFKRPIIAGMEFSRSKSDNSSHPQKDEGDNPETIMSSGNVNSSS
- ASSAY PROCEDURE: S1P1 binding assay: inhibition of [33P]-S1P binding to membrane fraction of HEK-293 cells transferred with the human Edg-1 (S1P1) gene
- ASSAY CONTEXT: [33P]-S1P 0.1 nM, human Edg-1 (S1P1) HEK-293 membrane fraction, 1 h at 30° C.; read-out: IC50 (concentration at which binding in the absence of the test compound was inhibited by 50%)
pIC50: −log10 of the molar value.

Solved cases (5 shown):
| MOLECULE | pIC50 |
| --- | --- |
| C[C@@H](NS(=O)(=O)c1ccc(Cl)c(Cl)c1)c1nnc(Oc2ccc3cc[nH]c3c2)n1C1CC1 [Compound 125] | ≥ 7.46 |
| C[C@@H](NS(=O)(=O)c1ccc(Cl)c(Cl)c1)c1nnc(Oc2cccc(N3CCN(C)CC3)c2)n1C1CC1 [Compound 123] | ≥ 7.46 |
| CCn1c(Oc2ccc(Cl)c(Cl)c2)nnc1[C@@H](C)NS(=O)(=O)c1ccc(Cl)c(Cl)c1 [Compound 13] | ≥ 7.46 |
| CCn1c(Oc2cccc(C3CCN(C(C)C)CC3)c2)nnc1[C@@H](C)NS(=O)(=O)c1ccc(Cl)c(Cl)c1 [Compound 108] | 7.74 |
| CCn1c(Oc2cc(C(C)C)n(C)n2)nnc1[C@@H](C)NS(=O)(=O)c1ccc(Cl)c(Cl)c1 [Compound 99] | 7.60 |

Notebook: CCn1c(Oc2cccc(N3CCN(C(C)C)CC3)c2)nnc1[C@@H](C)NS(=O)(=O)c1ccc2c(Cl)cccc2c1 [Compound 663] , pIC50 read as ≥ 8.00

Per the records, this molecule ( CCn1c(Oc2cccc(NS(C)(=O)=O)c2)nnc1[C@@H](C)NS(=O)(=O)c1ccc(Cl)c(Cl)c1 [Compound 102] ) has pIC50 equal to ≥ 7.46
